Overview of reported binding signal across a group of sequences:
Target: OsWOX13 (Oryza sativa, UniProt Q5QMM3 1-267)
Sequence: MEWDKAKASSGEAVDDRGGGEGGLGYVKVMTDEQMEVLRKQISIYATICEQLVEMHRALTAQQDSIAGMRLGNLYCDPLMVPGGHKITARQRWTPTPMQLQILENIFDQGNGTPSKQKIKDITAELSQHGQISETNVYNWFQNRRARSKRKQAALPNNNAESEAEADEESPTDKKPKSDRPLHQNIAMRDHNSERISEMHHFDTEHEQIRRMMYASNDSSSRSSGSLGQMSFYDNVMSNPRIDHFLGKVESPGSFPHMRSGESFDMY
Assay: protein-binding microarray (RPBM); PBS, 2% BSA, 51.3 ng/ul salmon testes DNA, 50 uM zinc acetate, 200 nM TF, 25 C, 1 h; high values mean tight binding
Details: protein: recombinant; tags: N-terminal polyhistidine and DsRed monomer fusion (pET32a); label: CyDye5-dUTP incorporated in the synthesized complementary strand; 3' TTTTT single-stranded linker to array surface; dsDNA, one strand shown
In all, about 35,000 sequences were measured (“fluorescence intensity (a.u.)”: median about 10,000, highest 2% from about 52,000 on). For the sample, the highest values were picked, then their nearest neighbours and some sequences at random.

# Primary Sequence, binding signal
records = [
    ("GCTTTCAATAAAACTTCATTAATTGAGGCTAAAATGTTACCGGAGTCACCTAGTGCAG", "5100 fluorescence intensity (a.u.)"),
    ("ATGATTAATACTTAATTAATTATGTGCGCTCATGGATCACCGGAGTCACCTAGTGCAG", "56400 fluorescence intensity (a.u.)"),
    ("CATGATTAATCAAGTTAATTATTATACACTAAATATTGGACGGAGTCACCTAGTGCAG", "59600 fluorescence intensity (a.u.)"),
    ("TTTTATAATGATACTTAATTAATCATGTGCTAATAATCACCGGAGTCACCTAGTGCAG", "9330 fluorescence intensity (a.u.)"),
    ("GTTTGGATTGATTATTGGGACAGTGAAATTGACCATTTGACGGAGTCACCTAGTGCAG", "39600 fluorescence intensity (a.u.)"),
    ("CGTAAATTTTCAATAAAATTTTAGTGAAATCAGGAATATGCGGAGTCACCTAGTGCAG", "17500 fluorescence intensity (a.u.)"),
    ("TATGAGATATCATTTAATTATATAATAAATATAATGATGTCGGAGTCACCTAGTGCAG", "4610 fluorescence intensity (a.u.)"),
    ("AATGATGGAGGATAATTTATATGCTAAATTATAAACTTGTCGGAGTCACCTAGTGCAG", "57700 fluorescence intensity (a.u.)"),
    ("TTAAATTATATTTATATCAAATTATACTTTGATCAATACTCGGAGTCACCTAGTGCAG", "39900 fluorescence intensity (a.u.)"),
]
